Kindly supply the reported phenotypic distance values for the records listed here.
system: E13 (patient-derived glioblastoma stem cells of classical subtype); test: phenotypic distance (Euclidean, principal components) from DMSO controls (arbitrary units); higher = stronger morphological change; conditions: 3000 nM; exposure time: 72 h
Give bare numbers.

For orientation, consider the following solved cases.
{"COMPOUND": "CC1(C(=O)O)C2CCC(O2)C1(C)C(=O)O (stereo not drawn)", "phenotypic distance": 2.26}
{"COMPOUND": "CN[C@@H](C)C(=O)N[C@H](C(=O)N1CCC[C@H]1C(=O)N[C@H]1c2ccccc2C[C@H]1OCC#CC#CCO[C@@H]1Cc2ccccc2[C@@H]1NC(=O)[C@@H]1CCCN1C(=O)[C@@H](NC(=O)[C@H](C)NC)C1CCCCC1)C1CCCCC1", "phenotypic distance": 1.79}
{"COMPOUND": "C[C@@]12C(=O)OC(=O)[C@]1(C)[C@H]1CC[C@@H]2O1", "phenotypic distance": 22.7}

// batch mode: one phenotypic distance value per listed entry
1. COC(=O)Nc1nc2cc(C(=O)c3ccccc3)ccc2[nH]1
2. COc1cc(/C=C/C(=O)N2CCC=CC2=O)cc(OC)c1OC
3. COC(=O)Nc1nc2cc(C(=O)c3cccs3)ccc2[nH]1

Result string:
7.2
1.87
9.87

====

tested on: FT3469 (normal neural stem cell line); assay: phenotypic distance (Euclidean, principal components) from DMSO controls (arbitrary units); higher = stronger morphological change; settings: 37 nM; exposure time: 72 h
Classify as follows. Reported phenotypic distance greater than or equal to 0.8: Satisfied. Reported phenotypic distance below: Not satisfied.

{"COMPOUND": "C#C[C@]1(O)CC[C@H]2[C@@H]3CCc4cc(OC5CCCC5)ccc4[C@H]3CC[C@@]21C", "LABEL": "Not satisfied"}
{"COMPOUND": "Nc1ccn([C@H]2CC[C@@H](CO)O2)c(=O)n1", "LABEL": "Not satisfied"}
{"COMPOUND": "COc1c(N2CCNC(C)C2)c(F)cc2c(=O)c(C(=O)O)cn(C3CC3)c12 (stereo not drawn)", "LABEL": "Not satisfied"}
{"COMPOUND": "CC(C)C[C@H](NC(=O)CNC(=O)c1cc(Cl)ccc1Cl)B(O)O", "LABEL": "Satisfied"}
{"COMPOUND": "C[C@]12CC[C@H](O)C[C@H]1CC[C@@H]1[C@@H]2C[C@@H](O)[C@]2(C)[C@@H](C3=CC(=O)OC3)CC[C@]12O", "LABEL": "Satisfied"}
{"COMPOUND": "C[C@@H](O[C@H]1OCCN(Cc2n[nH]c(=O)[nH]2)[C@H]1c1ccc(F)cc1)c1cc(C(F)(F)F)cc(C(F)(F)F)c1 [Aprepitant]", "LABEL": "Satisfied"}

Query string: Does the compound C#C[C@]1(O)CC[C@H]2[C@@H]3CCC4=CCCC[C@@H]4[C@H]3CC[C@@]21C have recorded phenotypic distance that is 0.8 or more?
Result string: Not satisfied

Query string: Does the compound O=C(CCBr)N1CCN(C(=O)CCBr)CC1 have recorded phenotypic distance that is 0.8 or more?
Result string: Not satisfied

====

Kindly supply the reported phenotypic distance values for the records listed here.
tested on: E28 (patient-derived glioblastoma stem cells of classical subtype); experiment: phenotypic distance (Euclidean, principal components) from DMSO controls (arbitrary units); higher = stronger morphological change; conditions: 111.1 nM; exposure time: 72 h
Counter-ions that a name gives are not always drawn.

For orientation, consider the following solved cases.
{"MOLECULE": "Nc1ncnc2c1c(-c1ccc(Oc3ccccc3)cc1)cn2C1CCCC1", "RESULT_VALUE": 0.847}
{"MOLECULE": "CCCSc1ccc2[nH]c(NC(=O)OC)nc2c1 [Albendazole]", "RESULT_VALUE": 1.25}
{"MOLECULE": "C=C[C@H]1CN2CC[C@H]1C[C@@H]2[C@@H](O)c1ccnc2ccc(OC)cc12 [Quinidine hydrochloride monohydrate]", "RESULT_VALUE": 0.837}
{"MOLECULE": "COc1ccc([C@@H]2CC(=O)c3c(O)cc(O[C@@H]4O[C@H](CO[C@@H]5O[C@@H](C)[C@H](O)[C@@H](O)[C@H]5O)[C@@H](O)[C@H](O)[C@H]4O)cc3O2)cc1O [Hesperidin]", "RESULT_VALUE": 0.619}

// batch mode: one phenotypic distance value per listed entry
1. COc1cc2c(c(OC)c1OC)-c1ccc(OC)c(=O)cc1[C@@H](NC(C)=O)CC2 [Colchicine]
2. CC(C)C(=O)OCC(=O)[C@@]12O[C@H](C3CCCCC3)O[C@@H]1C[C@H]1[C@@H]3CCC4=CC(=O)C=C[C@]4(C)[C@H]3[C@@H](O)C[C@@]12C [Ciclesonide]
3. C[C@]12CC[C@H](O)C[C@H]1CC[C@@H]1[C@@H]2C[C@@H](O)[C@]2(C)[C@@H](C3=CC(=O)OC3)CC[C@]12O [Digoxigenin]
4. CCC(=O)OCC(=O)[C@@]1(OC(=O)CC)[C@H](C)C[C@H]2[C@H]3[C@H]([C@@H](O)C[C@@]21C)[C@@]1(C)C=CC(=O)C=C1C[C@H]3Cl [Alclometasone dipropionate]
5. CCN(CC)Cc1ccc(C(=O)N(CCc2ccccc2OC)[C@@H]2CCNC2)cc1

Result string:
1. 4.55
2. 0.708
3. 0.569
4. 0.821
5. 0.771

====

test system: E31 (patient-derived glioblastoma stem cells of proneural subtype); test: surviving fraction (nuclei count normalised to DMSO); higher = more cells surviving (less toxic); conditions: 37 nM; exposure time: 72 h;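 also: nuclei counted by high-content imaging of Hoechst-stained cells in laminin-coated 384-well plates, relative to 0.1% DMSO vehicle wells, with staurosporine as cell-death control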
Classify as follows. Reported surviving fraction greater than or equal to 0.9: label 1. Reported surviving fraction below: label 0.

{"COMPOUND": "NCc1ccccc1CC(=O)N[C@@H]1C(=O)N2C(C(=O)O)=C(CSc3nnnn3CC(=O)O)CS[C@H]12 [Ceforanide]", "LABEL": "label 1"}

Now let's try a different one.
Query string: Does the compound CC1(C(=O)O)C2CCC(O2)C1(C)C(=O)O (configuration not stated) have recorded surviving fraction that is 0.9 or more?
Result string: label 1

====

Kindly supply the reported phenotypic distance values for the records listed here.
test system: FT3469; experiment: phenotypic distance (Euclidean, principal components) from DMSO controls (arbitrary units); higher = stronger morphological change; details: 1000 nM; exposure time: 72 h
Counter-ions that a name gives are not always drawn.
Numbers only.

For orientation, consider the following solved cases.
{"MOLECULE": "CC(C)CC(=O)N[C@H](C(=O)N[C@H](C(=O)N[C@@H](CC(C)C)[C@@H](O)CC(=O)N[C@@H](C)C(=O)N[C@@H](CC(C)C)[C@@H](O)CC(=O)O)C(C)C)C(C)C [Pepstatin A]", "phenotypic distance": 1.15}
{"MOLECULE": "CCCCCCCCCCCCCCCC[N+](C)(C)CCN(Cc1ccc(OC)cc1)c1ncccn1 [Thonzonium bromide]", "phenotypic distance": 0.946}
{"MOLECULE": "O=C(Oc1cccc2cccnc12)c1ccccc1 [Benzoxiquine]", "phenotypic distance": 0.688}
{"MOLECULE": "COc1ccc(C(=O)CC(=O)c2ccc(C(C)(C)C)cc2)cc1 [Avobenzone]", "phenotypic distance": 2.5}
{"MOLECULE": "CCn1cc(-c2ccnc3[nH]c(-c4cccc(CN(C)C)c4)cc23)c(-c2ccc(NC(=O)N(C)C)cc2)n1", "phenotypic distance": 2.98}
{"MOLECULE": "C[C@@H](O[C@H]1OCCN(Cc2n[nH]c(=O)[nH]2)[C@H]1c1ccc(F)cc1)c1cc(C(F)(F)F)cc(C(F)(F)F)c1 [Aprepitant]", "phenotypic distance": 0.537}
{"MOLECULE": "Nc1ccn([C@@H]2O[C@H](CO)[C@@H](O)C2(F)F)c(=O)n1 [Gemcitabine HCl]", "phenotypic distance": 1.8}

So, O=C(CCBr)N1CCN(C(=O)CCBr)CC1 [Pipobroman] ? Its phenotypic distance was 1.02

====

tested on: E34 (patient-derived glioblastoma stem cells of proneural subtype); assay: phenotypic distance (Euclidean, principal components) from DMSO controls (arbitrary units); higher = stronger morphological change; conditions: 37 nM; exposure time: 72 h
PROPERTY: phenotypic distance
One number for each entry.

{"TEST_SMILES": "COc1ccc2c(c1)CC[C@@H]1[C@@H]2CC[C@]2(C)[C@@H](NCCCCCCN3C(=O)CCC3=O)CC[C@@H]12", "RESULT_VALUE": 0.637}

// batch mode: one phenotypic distance value per listed entry
1. CC[n+]1c(/C=C/C=C2/N(C)c3ccccc3C2(C)C)sc2ccccc21
2. COc1cccc2c(NCc3ccccc3)nc(-n3c(N)nc4ccccc43)nc12

Result string:
[1.13, 0.602]

So the reported phenotypic distance for Cc1cc(Nc2cc(N3CCN(C)CC3)nc(Sc3ccc(NC(=O)C4CC4)cc3)n2)n[nH]1 , on E34, turned out to be 0.729

====

system: E28; assay: phenotypic distance (Euclidean, principal components) from DMSO controls (arbitrary units); higher = stronger morphological change; conditions: 37.037 nM; exposure time: 72 h
Where a name gives a salt, the structure may show the parent alone.
Classify as follows. Reported phenotypic distance greater than or equal to 0.6: rule met. Reported phenotypic distance below: rule not met.

Past entries and their recorded results:
{"MOLECULE": "COc1cc2nc(N3CCN(C(=O)c4ccco4)CC3)nc(N)c2cc1OC [Prazosin hydrochloride]", "LABEL": "rule met"}
{"MOLECULE": "Cc1ccc(NC(=O)c2ccc3c(c2)OCCO3)cc1NC(=O)c1ccc2nc(OCCN3CCCC3)ccc2c1", "LABEL": "rule met"}
{"MOLECULE": "C[C@@H](O)[C@H]1C(=O)N2C(C(=O)O)=C(S[C@@H]3CN[C@H](C(=O)N(C)C)C3)[C@H](C)[C@H]12 [Meropenem]", "LABEL": "rule not met"}

Query string: Does the molecule COc1cc([C@@H]2c3cc4c(cc3[C@@H](O[C@@H]3O[C@@H]5CO[C@@H](C)O[C@H]5[C@H](O)[C@H]3O)[C@H]3COC(=O)[C@H]23)OCO4)cc(OC)c1O [Etoposide] have recorded phenotypic distance that is 0.6 or more?
Result string: rule met

Query string: Does the molecule O=C(O)c1ccc(-c2c[nH]c3ncc(-c4ccccc4)cc23)cc1C1CCCC1 have recorded phenotypic distance that is 0.6 or more?
Result string: rule not met

Query string: Does the molecule CC(C)C[C@H](NC(=O)[C@H](Cc1ccccc1)NC(=O)c1cnccn1)B(O)O [Bortezomib] have recorded phenotypic distance that is 0.6 or more?
Result string: rule met
